Test system: 349418-098-R-PDC complex spheroid growth;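 also: spheroids also contain HUVEC endothelial cells and human MSC stroma; spheroids exposed to agents for seven days before luminescence viability read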
Assay: Anticancer human tumor 349418-098-R-PDC patient-derived lung adenocarcinoma cell line growth inhibition [AhR]
Details: second compound 0.316 µM; first compound 0.000949 µM; hits give low values
Cut-off 60% on viability, T/C: below means YES, at or above means NO.

* CCc1c2c(nc3ccc(O)cc13)-c1cc3c(c(=O)n1C2)COC(=O)[C@]3(O)CC + Cc1cncc(-c2nc(NCCc3c[nH]c4ccccc34)c3ncn(C(C)C)c3n2)c1 | YES
* CCc1c2c(nc3ccc(O)cc13)-c1cc3c(c(=O)n1C2)COC(=O)[C@]3(O)CC + Cc1ccccc1N=Nc1ccc(NC(=O)c2ccnn2C)c(C)c1 | YES

With those in mind, consider the next compound.
Query: In plain terms, does Nc1ncn(C2CC(O)C(CO)S2)c(=O)n1 (centres undefined) + Cc1cncc(-c2nc(NCCc3c[nH]c4ccccc34)c3ncn(C(C)C)c3n2)c1 come in under 60% for viability, T/C?
Response: NO
